Assay: inhibitors of Cryptococcus chitosan production, flow cytometry, Cibacron Brilliant Red staining (AID 1347148);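 note: compound exposure lasted three days at 37 degrees C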
Conditions: Cryptococcus neoformans chitosan; at 10 µM unless noted
Calls of active or inactive are those of the source. The rule behind the calls is not given here.
Bench note: report the call from active, inactive

Query block: Short answer needed: outcome of this test for Clc1ccc(-c2nc3sccn3c2/C=N/OCc2ccc(Cl)c(Cl)c2)cc1 ?
Result block: inactive

Query block: Then O=c1cc(N2CCOCC2)oc2c(-c3ccccc3)cccc12 ?
Result block: inactive

Query block: Continue with COc1cc(/C=C(\C#N)C(N)=O)cc(CSc2nc3ccccc3s2)c1O
Result block: inactive

Query block: Now give it for Oc1cc2c(cc1O)CN(C(=S)NCCc1ccc(Cl)cc1)CCC2 too.
Result block: inactive

Query block: Try CC[N+](CC)(CC)CC(=O)Nc1c(C)cccc1C next.
Result block: inactive

Query block: // query: COc1cccc2c1C(=O)c1c(O)c3c(c(O)c1C2=O)C[C@@](O)(C(=O)CO)C[C@@H]3OC1C[C@H](N)[C@H](O)[C@H](C)O1 (some centres undefined)
Result block: inactive

Query block: Next entry: C[C@@H]1CC2C3CCC4=CC(=O)C=C[C@]4(C)[C@@]3(F)[C@@H](O)C[C@]2(C)[C@@]1(O)C(=O)CO (some centres undefined)
Result block: inactive

Query block: Repeat with CN(C)CCCn1cc(C2=C(c3c[nH]c4ccccc34)C(=O)NC2=O)c2ccccc21
Result block: inactive

Query block: Now consider COc1ccc2c(c1)c(CC(=O)N1CCOCC1)c(C)n2C(=O)c1ccc(Cl)cc1 and answer again.
Result block: active

* * *

I'd appreciate it if you could supply fold change values for the items below.
Assay: sensitizers of A549 cells to miR-34 induction, primary screen, imaging, A549 dox-inducible miR-34, nuclei and caspase counts (AID 1347080)
Conditions: A549 miR-34 inducible, Hoechst nuclei count, 48 h; measured here: relative caspase fold change +Dox/-Dox
The reply should be a number, written without any unit.

Query block: Bench note: what fold change did COc1cc(-c2ccc(N=Nc3ccc4c(S(=O)(=O)O)cc(S(=O)(=O)O)c(N)c4c3O)c(OC)c2)ccc1N=Nc1ccc2c(S(=O)(=O)O)cc(S(=O)(=O)O)c(N)c2c1O show?
Result block: 0.848

Query block: Same question, CC(=O)OCC(=O)[C@@]12OC(C)(C)O[C@@H]1CC1C3C[C@H](F)C4=CC(=O)C=C[C@]4(C)[C@@]3(F)[C@@H](O)C[C@@]12C (stereo partly drawn) this time
Result block: 0.979

Query block: Can you handle COc1ccc(C[C@H](C)NC[C@@H](O)c2ccc(O)c(NC=O)c2)cc1 next?
Result block: 0.716

Query block: Same question, CC(=O)[C@@]1(O)CCC2C3C[C@H](C)C4=CC(=O)C=CC4(C)[C@@]3(F)[C@@H](O)C[C@@]21C (stereo partly drawn) this time
Result block: 3.38

Query block: And COc1cc(N)c(Cl)cc1C(=O)N[C@@H]1CCN(CCCOc2ccc(F)cc2)C[C@@H]1OC ?
Result block: 0.684

Query block: Please answer likewise for CC(C)(C)NC(=O)[C@H]1CCC2C3CCC4NC(=O)C=C[C@]4(C)C3CC[C@@]21C (stereo partly drawn)
Result block: 2.7

Query block: And for OC[C@@H](O)[C@@H](O)[C@H](O)[C@@H](O)CO ?
Result block: 3.07

Query block: Likewise for CC(C)C[C@@H](C(=O)N[C@H](C(=O)OC1CCCC1)c1ccccc1)[C@H](O)C(=O)NO ?
Result block: 1.24
